- tgt: T1, RecE564 E657A (Escherichia coli K12, UniProt P15032 564-866, E657A)
- T1 sequence: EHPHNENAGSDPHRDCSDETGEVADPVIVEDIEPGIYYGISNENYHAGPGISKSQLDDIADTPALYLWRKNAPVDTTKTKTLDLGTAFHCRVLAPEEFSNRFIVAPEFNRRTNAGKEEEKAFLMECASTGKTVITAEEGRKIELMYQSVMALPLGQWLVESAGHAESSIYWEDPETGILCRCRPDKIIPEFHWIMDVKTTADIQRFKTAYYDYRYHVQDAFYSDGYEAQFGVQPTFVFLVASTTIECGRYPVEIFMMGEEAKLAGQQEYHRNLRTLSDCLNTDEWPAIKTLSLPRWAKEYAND
- assayProcedure: fluorescence anisotropy
reportedEndpoint: pKd
On this scale, pKd is minus log10 of a concentration expressed in M (mol/L).

Any idea what its pKd is? The binder is F25 (dsDNA) DNA 1: TAGAGCTTAATTGCTGAATCTGGTG DNA 2: CACCAGATTCAGCAATTAAGCTCTA 7.05
